Overview of reported pIC50 across a group of compounds:
- TARGET UNDER TEST: menin-MLL interaction (Homo sapiens, UniProt O00255)
- Sequence (O00255 whole entry): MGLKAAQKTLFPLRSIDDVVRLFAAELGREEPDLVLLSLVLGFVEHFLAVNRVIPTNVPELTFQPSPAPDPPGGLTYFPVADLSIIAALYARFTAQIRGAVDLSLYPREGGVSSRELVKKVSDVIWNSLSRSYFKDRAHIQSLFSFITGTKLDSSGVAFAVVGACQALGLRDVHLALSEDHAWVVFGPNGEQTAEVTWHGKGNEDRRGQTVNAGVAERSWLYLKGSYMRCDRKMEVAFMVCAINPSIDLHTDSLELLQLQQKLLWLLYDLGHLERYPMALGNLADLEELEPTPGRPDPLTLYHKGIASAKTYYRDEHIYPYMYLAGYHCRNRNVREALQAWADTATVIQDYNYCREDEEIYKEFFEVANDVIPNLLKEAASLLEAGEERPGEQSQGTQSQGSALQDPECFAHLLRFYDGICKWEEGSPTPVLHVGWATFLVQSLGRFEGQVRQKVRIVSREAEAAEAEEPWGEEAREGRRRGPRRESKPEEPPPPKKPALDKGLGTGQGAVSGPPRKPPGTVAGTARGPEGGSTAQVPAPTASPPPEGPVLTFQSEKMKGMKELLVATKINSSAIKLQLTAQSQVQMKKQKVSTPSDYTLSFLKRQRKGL
- PROCEDURE DETAILS: Fluorescence polarization (FP) competition assay of the menin-MLL interaction
- MEASUREMENT CONTEXT: inhibition of the menin-MLL interaction; read-out: IC50 values for Table 1 inhibitors of menin
pIC50: −log10 of the molar value.

{"COMPOUND": "Cc1c(CN2CCC(Nc3ncnc4sc(CC(F)(F)F)cc34)CC2)ccc2c1cc(C#N)n2CCN1CC2CNCC2C1 (stereo not drawn)", "pIC50": "> 7.52"}
{"COMPOUND": "C=CC(=O)Nc1ccc(C(O)Cn2c(C#N)cc3c(C)c(CN4CCC(Nc5ncnc6sc(CC(F)(F)F)cc56)CC4)ccc32)cc1 (stereo not drawn)", "pIC50": "> 7.52"}
{"COMPOUND": "C=CC(=O)N1CC2CN(CCn3c(C#N)cc4c(C)c(CN5CCC(Nc6ncnc7sc(CC(F)(F)F)cc67)CC5)ccc43)CC2C1 (stereo not drawn)", "pIC50": "7.00 to 7.52"}
{"COMPOUND": "C=CC(=O)Nc1nc(CCn2c(C#N)cc3c(C)c(CN4CCC(Nc5ncnc6sc(CC(F)(F)F)cc56)CC4)ccc32)cs1", "pIC50": "7.00 to 7.52"}
{"COMPOUND": "C=CS(=O)(=O)N1CCC(CCn2c(C#N)cc3c(C)c(CN4CCC(Nc5ncnc6sc(CC(F)(F)F)cc56)CC4)ccc32)CC1", "pIC50": "> 7.52"}
{"COMPOUND": "Cc1c(CN2CCC(Nc3ncnc4sc(CC(F)(F)F)cc34)CC2)ccc2c1cc(C#N)n2CCc1cccc(P(C)(C)=O)c1", "pIC50": "7.00 to 7.52"}
